Can you tell me Polyclonal Transfectant Neutralization Index for the items I'm about to list?
target: HIV-1 Env of pseudovirus JRCSF (HIV-1) (UniProt P20871); assay: cell-based or functional assay
// return just the number, without any unit appended

Query string: Suppose we examine the binder PGT-128 (B cell culture well 5114_A19) (antibody, V domains shown) VH: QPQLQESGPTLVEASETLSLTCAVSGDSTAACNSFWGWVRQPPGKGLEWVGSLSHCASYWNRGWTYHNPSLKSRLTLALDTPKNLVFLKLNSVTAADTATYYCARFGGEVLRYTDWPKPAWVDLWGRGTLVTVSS VL: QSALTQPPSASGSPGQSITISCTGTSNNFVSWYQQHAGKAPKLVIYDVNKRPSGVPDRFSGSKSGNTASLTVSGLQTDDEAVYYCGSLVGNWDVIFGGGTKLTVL ; what Polyclonal Transfectant Neutralization Index value has been reported?
Result string: 136

Query string: Fill in: Polyclonal Transfectant Neutralization Index of PGT-126 (B cell culture well 5141_B17) (antibody, V domains shown) VH: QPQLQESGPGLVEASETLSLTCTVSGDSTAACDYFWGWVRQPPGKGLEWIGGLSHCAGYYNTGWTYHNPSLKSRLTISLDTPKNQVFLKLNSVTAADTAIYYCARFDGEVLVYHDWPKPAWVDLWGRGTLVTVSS VL: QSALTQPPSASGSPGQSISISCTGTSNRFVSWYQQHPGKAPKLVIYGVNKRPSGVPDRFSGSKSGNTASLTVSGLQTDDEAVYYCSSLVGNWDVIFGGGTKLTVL is ___
Result string: 102

Query string: Given the entry PGT-125 (B cell culture well 5123_A6) (antibody, V domains shown) VH: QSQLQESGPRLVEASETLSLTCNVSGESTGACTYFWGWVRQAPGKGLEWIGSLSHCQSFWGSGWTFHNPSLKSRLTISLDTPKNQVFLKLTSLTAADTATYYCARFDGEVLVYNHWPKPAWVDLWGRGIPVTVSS VL: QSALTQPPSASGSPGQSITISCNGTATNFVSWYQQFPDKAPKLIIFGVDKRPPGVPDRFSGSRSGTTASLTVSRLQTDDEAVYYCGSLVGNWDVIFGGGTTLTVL , report its measured Polyclonal Transfectant Neutralization Index.
Result string: 119

Query string: Which Polyclonal Transfectant Neutralization Index is reported for this binder? PGT-130 (B cell culture well 5147_N6) (antibody, V domains shown) VH: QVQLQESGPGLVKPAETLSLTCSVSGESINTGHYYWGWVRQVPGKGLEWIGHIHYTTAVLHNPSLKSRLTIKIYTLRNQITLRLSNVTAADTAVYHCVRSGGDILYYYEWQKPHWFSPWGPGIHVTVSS VL: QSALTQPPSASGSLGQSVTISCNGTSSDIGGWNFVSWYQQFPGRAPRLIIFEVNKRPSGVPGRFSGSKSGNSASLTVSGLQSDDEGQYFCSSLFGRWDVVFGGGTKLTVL
Result string: 1.24

Query string: # query: Polyclonal Transfectant Neutralization Index of entry PGT-127 (B cell culture well 5145_B14) (antibody, V domains shown) VH: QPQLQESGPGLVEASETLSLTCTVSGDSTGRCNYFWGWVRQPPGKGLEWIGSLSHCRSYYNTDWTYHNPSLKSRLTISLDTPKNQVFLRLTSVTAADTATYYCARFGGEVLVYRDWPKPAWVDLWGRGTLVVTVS VL: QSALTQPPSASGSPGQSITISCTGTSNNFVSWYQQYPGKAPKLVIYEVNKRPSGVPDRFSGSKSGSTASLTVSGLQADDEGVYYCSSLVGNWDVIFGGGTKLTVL
Result string: 1.61
